- system.tested: D(1A) dopamine receptor (Homo sapiens)
- experiment: Allosteric Agonists of the Human D1 Dopamine Receptor: qHTS; further: 0% is about no effect
- condition.notes: HEK293 T-REx D1 cells, calcium flux, agonist mode; at 2 µM
In all, about 360,000 compounds went through this assay and about 3,700 (1%) were called active. No stated cut-off is given here; in the data, active means activation above about 30%; inactive means the rest. The list comes from a sample in which actives are over-represented; it also holds close analogues and randomly drawn compounds.
Response enum: active, inactive

Examples with answers:
Hi, sorry to bother you, what did the test record for `Cc1cc(C)c(S(=O)(=O)N2CCC(C(=O)OCc3c(C)noc3C)CC2)c(C)c1` ? active

Recorded test outcome, item `CCc1nnc(SCC(=O)Nc2cc(OC)ccc2OC)nc1CC` inactive

Others:
I'd appreciate the recorded outcome for `Cc1ccc(C)c(NC(=O)Cn2ccn(-c3ccc(F)cc3)c(=O)c2=O)c1` from this test. inactive

# lookup: test call for `COc1cccc(CNCCSc2nnnn2C)c1OCc1ccccc1Cl` inactive

Hey, what did the test say about CCN(CC)S(=O)(=O)c1ccc2c(c1)N(CC(=O)NCC(C)c1ccccc1)C(=O)CO2 (stereo unspecified) ? inactive

Please let me know the test result on file for `Cc1ccc2nc(/C(C#N)=C/c3ccccc3F)[nH]c2c1` . inactive

Query: recorded result category for `CN(C(=O)CSc1nnnn1-c1ccccc1)C1CCCCC1` in this test inactive

###

- system.tested: D(1A) dopamine receptor (Homo sapiens)
- experiment: Allosteric Agonists of the Human D1 Dopamine Receptor: qHTS; further: 0% is about no effect
- condition.notes: HEK293 T-REx D1 cells, calcium flux, agonist mode; at 2 µM
Out of some 360,000 compounds screened, about 3,700 (1%) were called active. Rule as the data show it: active = activation above about 30%; inactive = the rest. This is one part of a sample in which actives are shown more often than they occur.
Hello, when you answer, please use one of the following outcomes: active, inactive

Illustrative cases are given below, each with its answer.
Outcome logged for `CCCn1c2ccccc2c2cnn(CC(=O)NCC3CCN(Cc4ccc(C)cc4)CC3)c(=O)c21` in this assay: active

Dear colleague, could you share the recorded outcome for O=C(NCc1cc(C(F)(F)F)cc(C(F)(F)F)c1)C1CC(c2cccc(F)c2)=NO1 (stereo unspecified) when you have a moment? active

Continuing:
Assay result, entry `CC(=O)c1cccc(NC(=O)CSc2nc3c(c(=O)[nH]2)CCC3)c1` — outcome? inactive

Could you please tell me the result logged for `CCOC(=O)N1CCc2c(sc3c2c(=O)n(-c2ccc(CC)cc2)c(=O)n3C)C1` in this assay? inactive

###

- system.tested: D(1A) dopamine receptor (Homo sapiens) (UniProt P21728)
- Sequence (P21728 whole entry, looked up): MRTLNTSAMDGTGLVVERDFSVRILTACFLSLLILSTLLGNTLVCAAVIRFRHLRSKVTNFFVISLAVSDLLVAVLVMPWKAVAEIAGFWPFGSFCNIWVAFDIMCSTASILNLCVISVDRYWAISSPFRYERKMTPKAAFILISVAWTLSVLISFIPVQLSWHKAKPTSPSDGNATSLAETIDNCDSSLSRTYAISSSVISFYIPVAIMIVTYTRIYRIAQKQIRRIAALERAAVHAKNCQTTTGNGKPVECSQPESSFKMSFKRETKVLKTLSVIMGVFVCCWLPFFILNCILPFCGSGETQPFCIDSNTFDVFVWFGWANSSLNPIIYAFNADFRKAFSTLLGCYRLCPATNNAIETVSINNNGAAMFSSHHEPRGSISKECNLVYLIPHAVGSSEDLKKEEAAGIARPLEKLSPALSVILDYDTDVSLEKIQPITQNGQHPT
- experiment: Allosteric Agonists of the Human D1 Dopamine Receptor: qHTS; further: 0% is about no effect
- condition.notes: HEK293 T-REx D1 cells, calcium flux, agonist mode; at 2 µM
The whole screen tested about 360,000 compounds, of which about 3,700 (1%) were called active. Cut-off read from the data, not from the text of the source: active = activation above about 30%; inactive = the rest. What follows is part of a selection rich in actives, with near analogues and random picks from the rest.
Your reply should match one of these outcome classes. active, inactive

Completed entries (count: 5):
Tell me the recorded outcome of this test for `Cc1nn(CCOc2ccccc2)c(=O)n1-c1ccccc1F` . inactive

# outcome recorded in this test, key = `CCOc1ccc(NC(=O)Cn2cc(C(=O)c3ccc(C)cc3)c(=O)c3cc4c(cc32)OCCO4)cc1` inactive

Just curious, what result did `CCc1ccc(NC(=O)CCCc2nnc3n(CCCOC)c(=O)c4sccc4n23)cc1` get here? inactive

Fill in: this test's call for CC(NC(=S)Nc1ccc(OC(F)F)cc1)c1ccc(F)cc1 (configuration not stated) is ___ active

Test call, this compound: `COCCCNC(=S)N1CCN(c2nc(-c3cccc(OC)c3)cs2)CC1` inactive

New cases:
Hello, I am checking results. What call was entered for `COc1cccc(-n2ccn(CC(=O)NCc3ccc(C)cc3)c(=O)c2=O)c1` ? inactive

Recorded call for `c1ccc2cc(OCCN3CCCC3)ccc2c1` ? inactive

Test call, this compound: `CC(C)N(Cc1ccccc1)C(=S)Nc1ccc(OC(F)F)cc1` inactive

Status in this test for `Cc1c(C(=O)NCc2ccccc2Br)oc2ccc3c(c12)C(=O)CC(C)(C)O3` ? inactive

Check the results log: what was the call for CCCCCCCCCCOC(=O)C[N+](C)(C)CC1CCCCC1O (configuration not stated) ? active

Tell me the assay call for `CC/C(=N\NC(=S)NC(C)C)c1ccc(OC(F)F)cc1` please. inactive

###

- system.tested: D(1A) dopamine receptor (Homo sapiens) (UniProt P21728)
- experiment: Allosteric Agonists of the Human D1 Dopamine Receptor: qHTS; further: 0% is about no effect
- condition.notes: HEK293 T-REx D1 cells, calcium flux, agonist mode; at 2 µM; hits give high values
The whole screen tested about 360,000 compounds, of which about 3,700 (1%) were called active. For the sample, actives were picked, then their nearest neighbours and some compounds at random.
attribute.measured: activation (%)
Answers are plain numbers, in %.

// for each molecule in input: emit activation
1. COc1cc(CNCc2ccc(OC)c3ccccc23)cc(OC)c1OC
2. Cc1cccc(NC(=O)CN(c2ccc(C(C)C)cc2)S(=O)(=O)c2c(C)nn(C)c2C)c1C
3. Cc1ccc(OCC(=O)Nc2ccc(OCc3cc(=O)n4c(C)csc4n3)cc2)cc1C
4. Oc1ccc(-c2nc3ccc(Cl)cn3c2Nc2ccc3c(c2)OCO3)cc1

36.9
3.58
5.64
2.27

For each listed entry, give its activation.
1. O=C(CCCN1CCc2[nH]c3ccc(F)cc3c2C1)c1ccc(F)cc1
2. Cc1nc2c(c(=O)n1Cc1ccco1)c1nc3ccccc3nc1n2Cc1ccccc1
3. Cc1cc2nc3c(=O)n(Cc4ccccc4)c(=O)[nH]c3nc2cc1N
4. CCOC(=O)c1ccc(NC(=O)C2CC(=O)N(c3ccc(C(C)C)cc3)C2)cc1 (centres undefined)
5. CCOc1ccc(S(=O)(=O)Nc2ccc3oc4c(c3c2)CC(C)CC4)cc1 (centres undefined)
6. N#Cc1c(-c2ccccc2)nc(SCc2cccc(C(F)(F)F)c2)[nH]c1=O
7. Cc1cc(OCC(=O)N(C)c2c(N)n(Cc3ccccc3)c(=O)[nH]c2=O)c(C(C)C)cc1Cl
8. C=CCOc1cccc(CNCc2cccnc2)c1

56.3
0.836
368
0.0656
8.18
42.4
-0.311
3.75

Value sought for every listed molecule: activation.
1. CCN(CC)c1ccc2cc(C(N)=O)/c(=N\NC(=O)c3ccncc3)oc2c1
2. COc1cc(CNCc2cccs2)cc(Br)c1OC

68.8
2.66

Okay, here is my list. What is activation for each of these?
1. CCOc1ccc(N(CC)C(=O)C2CCN(S(=O)(=O)c3cccc4nonc34)CC2)cc1
2. Cc1ccc(-n2c(SCC(=O)Nc3cccc(F)c3)nc3c(oc4ccccc43)c2=O)cc1C
3. CCOC(=O)c1c(C)oc2ccc(N(C(=O)c3ccncc3)S(=O)(=O)c3ccc(CC)cc3)cc12
4. Fc1cccc(Cl)c1COc1ccc(-c2nnco2)cc1

1. 0.273
2. 4.64
3. 2.86
4. 4.97

Give measured activation for every item shown.
1. O=[S+]([O-])(c1ccc(OC(F)(F)F)cc1)N1CCN([S+](=O)([O-])c2ccc3c(c2)OCCO3)CC1
2. Cc1ccccc1CSc1nnc(-c2ccccc2)c(=O)[nH]1
3. COc1cc(NS(=O)(=O)c2cccs2)cc(OC)c1
4. CCOC(=O)NN1C(=O)c2ccccc2NC1c1ccccc1O (centres undefined)
5. CCCC(C)C(=O)Nc1ccc(NC(C)=O)cc1 (centres undefined)

1: 4.97; 2: 0.158; 3: -0.545; 4: 0.398; 5: 2.66

Need activation for each of these molecules.
1. NC(=O)C1=C[C@@H](c2csc3ccccc23)C[C@@H](OCc2ccc(CO)cc2)O1
2. O=C(CSc1nc2ccccc2nc1Cc1ccccc1)N1CCCCC1
3. Cc1ccc2[nH]c3c(c2c1)CN(C(=O)CN1CCN(c2ccccc2)CC1)CC3
4. CCOCCCNC(=O)c1ccc2nc(CCc3ccccc3)oc2c1
5. O=C(CSc1ncc(CO)n1Cc1ccc(F)cc1)NCc1ccco1
6. CC(C)(CCl)C(=O)Nc1ccc(Sc2ccc(F)cc2)cc1
7. COc1cc(OC)c(NC(=O)c2cc(S(=O)(=O)N3CCCC3)cn2C)cc1Cl
8. O=C(/C=C/c1ccc(OCc2c(F)cccc2Cl)cc1)N1CCOCC1

1: 11.8; 2: 4.62; 3: 0.149; 4: 0.808; 5: 1.99; 6: 32.5; 7: 0.318; 8: 59.7

Please state, for each entry, its recorded activation.
1. C/C(=N\NC(N)=S)c1ccncc1
2. Cc1cc2n(n1)C(c1cc(C(C)(C)C)c(O)cc1O)Nc1ccccc1-2 (centres undefined)
3. O=S(=O)(c1ccc2c(c1)OCCO2)N1CCN(S(=O)(=O)c2cc(F)ccc2F)CC1
4. CC(=O)Nc1cc(C(=O)NCc2ccc(F)cc2)ccc1Sc1ccc(F)cc1
5. O=C(CC(c1cccs1)N1Cc2ccccc2C1=O)Nc1ccc(F)c(F)c1 (centres undefined)
6. CN(C)c1ccc(NC(=O)CSc2nc(-c3ccco3)cc(C(F)(F)F)n2)cc1
7. N#Cc1c(-c2cccs2)nc(SCC(=O)c2ccc(Br)cc2)[nH]c1=O

0.713
38.8
6.6
-2.57
10.6
-0.482
27.1

The value of activation measured for the molecule O=C(NC1CC(=O)N(c2ccc(F)cc2)C1)c1cccs1 (centres undefined) turned out to be 1.75
